target: TDO (Homo sapiens); construct: endogenous in cells; host or cells: SW48 cells (A2780 cells as control with minimal TDO activity); assay: TDO Cellular Assay in Frozen SW48 Cells; type: cell-based; conditions: 300 uM L-tryptophan, about 48 hours, fluorescence readout
Sequence (P48775 whole entry): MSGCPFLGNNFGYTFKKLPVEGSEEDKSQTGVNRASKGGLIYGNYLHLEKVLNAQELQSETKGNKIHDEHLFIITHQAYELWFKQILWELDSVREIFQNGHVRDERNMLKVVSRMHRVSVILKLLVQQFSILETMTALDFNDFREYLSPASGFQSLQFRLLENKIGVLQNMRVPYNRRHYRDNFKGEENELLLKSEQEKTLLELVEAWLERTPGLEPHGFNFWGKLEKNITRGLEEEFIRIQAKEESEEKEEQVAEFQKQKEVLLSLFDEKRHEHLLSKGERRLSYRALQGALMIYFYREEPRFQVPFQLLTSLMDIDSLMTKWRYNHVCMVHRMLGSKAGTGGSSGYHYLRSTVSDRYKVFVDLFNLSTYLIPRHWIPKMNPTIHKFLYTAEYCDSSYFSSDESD
pIC50: −log10 of the molar value.
attribute.measured: pIC50

[
  {
    "smiles.text": "O=C(Nc1ccc(C2(NC(=O)c3ccc(F)c(F)c3)CCC2)cc1)c1cccc(Cl)c1",
    "attribute.measured": "pIC50",
    "val": "≤ 5.00"
  },
  {
    "smiles.text": "O=C(Nc1ccc(C2(C(=O)Nc3ccc(F)c(F)c3)CCC2)cc1)c1cccc(Cl)c1",
    "attribute.measured": "pIC50",
    "val": "≤ 5.00"
  },
  {
    "smiles.text": "CCCNC(=O)C1(c2ccc(NC(=O)c3cc(F)cc(Cl)c3)cc2)CCC1",
    "attribute.measured": "pIC50",
    "val": "≤ 5.00"
  },
  {
    "smiles.text": "CCO[C@@H]1C[C@H]1NC(=O)C1(c2ccc(NC(=O)c3cccc(Cl)c3)cc2)CC(F)(F)C1",
    "attribute.measured": "pIC50",
    "val": "≤ 5.00"
  },
  {
    "smiles.text": "O=C(Nc1ccc(C2(NC(=O)c3cc(Cl)ccn3)CCC2)cc1)c1cccc(Cl)c1",
    "attribute.measured": "pIC50",
    "val": "≤ 5.00"
  },
  {
    "smiles.text": "O=C(Nc1ccc(C2(NC(=O)c3nccs3)CCC2)cc1)c1cccc(Cl)c1",
    "attribute.measured": "pIC50",
    "val": 5.60
  },
  {
    "smiles.text": "O=C(Nc1ccc(C2(NC(=O)c3cscn3)CCC2)cc1)c1cccc(Cl)c1",
    "attribute.measured": "pIC50",
    "val": 5.92
  },
  {
    "smiles.text": "O=C(Nc1ccc(C2(C(=O)NS(=O)(=O)c3ccccc3)CCC2)cc1)c1cccc(Cl)c1",
    "attribute.measured": "pIC50",
    "val": "≤ 5.00"
  }
]
